Source: PubChem BioAssay (NCI)

Tested on: MOLT-4 leukemia
Test: NCI-60 one-dose screen, 48 h (100 = growth as untreated, 0 = no growth, -100 = all killed)
Settings: 10 µM unless noted
This is part of a sample that, as a whole, favours compounds with a hit. Of some 83,000 tested, about 20% had one in any assay. Active and inactive are the calls of the source. Rule for the calls: active = growth percent below 10; inactive = the rest.
RESULT TYPE: growth

INSERT INTO assay_data (molecule, measured) VALUES
  ('CN(C)C(CNc1oc(-c2cccc3ccccc23)nc1C#N)c1ccco1 (stereo unspecified)', '70.5% (inactive)'),
  ('CCOC(=O)c1c(C)nc2c(c1N)/C(=C/c1cccs1)C(=O)N2Cc1ccccc1', '18.8% (inactive)'),
  ('COc1ccc(C(=O)c2cc(F)c(F)c(OC)c2F)cc1OC(=O)CCl', '29.6% (inactive)'),
  ('CN1C(=O)c2cc(Cl)nc3c(NC(=O)c4cccc(Cl)c4)c(Cl)c(NC(=O)c4cccc(Cl)c4)c1c23', '-19.9% (active)'),
  ('Cn1nc(C(F)(F)F)c(-c2cc(C(F)(F)F)cc(C(F)(F)F)c2)c1-c1ccc(OCc2ccc(Cl)cc2)cc1O', '-11.7% (active)'),
  ('Oc1ccc(CNNc2ccnc3c(O)cccc23)c2cccnc12', '13.4% (inactive)');

###

growth values, listed per item
Tested on: SK-OV-3 ovarian
Experiment: NCI-60 one-dose screen, 48 h (100 = growth as untreated, 0 = no growth, -100 = all killed)
Conditions: 10 µM unless noted
Procedure: Growth inhibition of the SK-OV-3 human tumor cell line is measured as a screen for anti-cancer activity. Cells are grown in 96 well plates and exposed to the test compound for 48 hours. Compounds are tested at a single concentration, which is 10^-5 M for most compounds. The reported endpoint is percent growth (GI% or GIPRCNT), where numbers from 0 - 100% represent growth inhibition, and numbers from -100% - 0 represent cell death. For example, a value of 40 represents 60% growth inhibition. […]
This is part of a sample that, as a whole, favours compounds with a hit. Of some 83,000 tested, about 20% had one in any assay. Calls of active or inactive are those of the source. Rule for the calls: active = growth percent below 10; inactive = the rest.
RESULT TYPE: growth

INSERT INTO results (smiles_entry, experimental_system, result_type, measured) VALUES
  ('N#Cc1c(NC(=O)c2cccs2)[n+]([O-])c2cc(C(F)(F)F)ccc2[n+]1[O-]', 'SK-OV-3 ovarian', 'growth', '97.2% (inactive)'),
  ('Nc1ccc(C(=O)Nc2cccc(C(=O)Nc3ccc4c(O)c(N=Nc5ccc(N=Nc6ccc(S(=O)(=O)O)cc6)cc5)c(S(=O)(=O)O)cc4c3)c2)cc1', 'SK-OV-3 ovarian', 'growth', '101% (inactive)'),
  ('O=c1[nH]nc(-c2ccc(Br)cc2)c2sc(NC(=S)Nc3ccc(Cl)cc3)nc12', 'SK-OV-3 ovarian', 'growth', '96.9% (inactive)');

###

Test system: SNB-19 CNS
Assay: NCI-60 one-dose screen, 48 h
Conditions: 10 µM unless noted
This is part of a sample that, as a whole, favours compounds with a hit. Of some 83,000 tested, about 20% had one in any assay. Calls of active or inactive are those of the source. Rule for the calls: active = growth percent below 10; inactive = the rest.
Labels: active, inactive

INSERT INTO assay_data (compound, classification) VALUES
  ('COc1ccccc1Nc1nnc(-c2ccc(Cl)cc2)o1', 'inactive'),
  ('CCN1CCC[C@H]1c1cc(O)c2c(c1OC)C[C@H]1C[C@H]3[C@H](N)C(=O)C(C(N)=O)=C(O)[C@@]3(O)C(=O)C1=C2O', 'active'),
  ('N#Cc1c(-c2ccc(F)cc2)nc(N=Nc2c(O)[nH]c3ccccc23)nc1N1CCOCC1', 'inactive'),
  ('NCCN1CCNCC1', 'inactive'),
  ('CCOC(=O)NC(Cc1ccccc1)c1ccccc1 (stereo not given)', 'inactive'),
  ('COC(=O)c1nc(-c2ccccc2)oc1S(=O)(=O)n1nc(C)cc1N', 'inactive'),
  ('CCOc1ccccc1C(=O)/C=C/c1cc2ccccc2[nH]c1=O', 'active'),
  ('CCCn1c2cc(OCc3cn(-c4ccc(Cl)cc4)nn3)ccc2c2ccnc(C)c21', 'inactive'),
  ('O=Cc1[nH]c(Sc2ccccc2)c2ccccc12', 'inactive'),
  ('CC(C)(C)c1nn(-c2ccccc2)c2c1COCN2Cc1ccc(Cl)cc1', 'inactive'),
  ('Cc1cc(C)nc(NS(=O)(=O)c2ccc(Nc3ccc4c5c(n(CCCN(C)C)c(=O)c4c3)-c3ccccc3C5=O)cc2)n1', 'inactive'),
  ('COc1ccc(-c2nc(C#N)c(NCC(c3ccco3)N3CCCC3)o2)cc1 (stereo not given)', 'inactive'),
  ('COc1cc2cc(c1Cl)N(C)C(=O)C[C@H](OC(=O)[C@H](C)N(C)C(=O)CCS)C[C@]1(C)O[C@H]1[C@H](C)[C@@H]1C[C@@](O)(NC(=O)O1)[C@H](OC)/C=C/C=C(\C)C2', 'inactive'),
  ('COc1ccc(NC(=O)Nc2ccc(Nc3nc(C)cc(Nc4ccc(C)cc4)n3)cc2)cc1', 'active'),
  ('COc1ccccc1N1CCN(CCCOc2ccc(C(=O)/C=C3/C(=O)Nc4ccccc43)cc2)CC1', 'inactive');

###

Tested on: HT29 colon
Assay: NCI-60 one-dose screen, 48 h (100 = growth as untreated, 0 = no growth, -100 = all killed)
Details: 10 µM unless noted
This is part of a sample that, as a whole, favours compounds with a hit. Of some 83,000 tested, about 20% had one in any assay. Calls of active or inactive are those of the source. Rule for the calls: active = growth percent below 10; inactive = the rest.
RESULT TYPE: growth

INSERT INTO measurements (compound, result_type, measured) VALUES
  ('Nc1ccc(C(=O)Nc2cccc(C(=O)Nc3ccc4c(O)c(N=Nc5ccc(N=Nc6ccc(S(=O)(=O)O)cc6)cc5)c(S(=O)(=O)O)cc4c3)c2)cc1', 'growth', '97.6% (inactive)'),
  ('Cc1ccc(SC2c3ccc(C)cc3Oc3nc(N)c(C#N)c(N)c32)cc1 (centres undefined)', 'growth', '103% (inactive)'),
  ('C#Cc1cccc(Nc2ncnc3ccc(NC(=O)c4ccccc4)cc23)c1', 'growth', '82.4% (inactive)'),
  ('C[C@@H]1C(=O)[C@@H]2C[C@@H](O)[C@@H](O)C[C@]2(C)[C@H]2CC[C@@]3(C)C(=C12)CC[C@@H]3[C@@](C)(O)[C@H](O)CCC(C)(C)O', 'growth', '97.6% (inactive)'),
  ('COc1ccc(NC(=O)c2ccc(Nc3ncnc4[nH]c(C)c(C)c34)cc2)cc1', 'growth', '103% (inactive)'),
  ('O=C(CSC(=S)N1CCCCC1)Nc1ccccc1', 'growth', '91.2% (inactive)'),
  ('COc1ccc(-c2cc(-c3nnc(SCC(=O)Nc4ccc(/C(C)=N\O)cc4)n3-c3ccccc3)c3cc(OC)ccc3n2)cc1', 'growth', '79.8% (inactive)'),
  ('COc1ccc(/C=C/C(=O)Nc2ncnc3nc[nH]c23)cc1', 'growth', '96.5% (inactive)'),
  ('COc1cc(/C=C/CO)cc(OC)c1O[C@@H]1O[C@H](CO)[C@@H](O)[C@H](O)[C@H]1O', 'growth', '100% (inactive)'),
  ('CSc1nc(-c2cccs2)c2c(N)[nH]nc2n1', 'growth', '93.2% (inactive)'),
  ('COC(=O)/C=C/c1cc(OC)c2c(c1)[C@@H](C(=O)OC)[C@H](c1ccc(OC)c(OC)c1)O2', 'growth', '11% (inactive)'),
  ('c1cc(CNC23CC4CC(CC(C4)C2)C3)cc(C[N+](Cc2cccc(CNC34CC5CC(CC(C5)C3)C4)c2)(Cc2cccc(CNC34CC5CC(CC(C5)C3)C4)c2)Cc2cccc(CNC34CC5CC(CC(C5)C3)C4)c2)c1 (centres undefined)', 'growth', '-5.66% [42 µM] (active)'),
  ('Oc1ccccc1-c1nc2c3ccccc3c3ccccc3c2o1', 'growth', '106% (inactive)'),
  ('COC(=O)/C=C/c1cc(OC(C)=O)c2c(c1)C(C(=O)OC)C(c1ccc(OC(C)=O)c(OC(C)=O)c1)O2 (centres undefined)', 'growth', '11% (inactive)');

###

Tested on: 786-0 renal
Assay: NCI-60 one-dose screen, 48 h (100 = growth as untreated, 0 = no growth, -100 = all killed)
Conditions: 10 µM unless noted
The panel holds about 83,000 compounds, 20% with a hit somewhere; the sample as a whole holds those more often.
Use 80% as the dividing line for growth, with the line itself on the Y side and lower values as N.

INSERT INTO measurements (compound, classification) VALUES
  ('Cc1c(Cl)cccc1NC(=O)c1sc2nc3c(cc2c1N)CCCCCC3', 'N'),
  ('COc1ccc(NC(=O)Nc2ccc(Nc3nc(C)cc(Nc4ccc(C)cc4)n3)cc2)cc1', 'N'),
  ('O=C1CCc2ccccc2N1', 'Y'),
  ('N#Cc1ccc(N2Cc3cc(Cl)ccc3OC3=C2C(=O)N(Cc2ccc(F)cc2)C3=O)cc1', 'N'),
  ('O=C(O)CCNC1CCCCC1', 'Y'),
  ('Nc1n[nH]c2cccc(C#Cc3cccc(NC(=O)c4cc(N5CCOCC5)cc(C(F)(F)F)c4)c3)c12', 'N'),
  ('CCCCCOC(=O)c1ccccc1O', 'Y'),
  ('COc1cc(C(=O)N2CCN(c3ccccc3OC)CC2)c(NC(=O)c2cnccn2)cc1OCc1ccccc1', 'Y'),
  ('CCOC(=O)C1=C(C)n2nc(CC#N)c(C#N)c2NC1c1ccc(CC)cc1 (configuration not stated)', 'Y'),
  ('Cn1nc(C(F)(F)F)c(-c2cc(C(F)(F)F)cc(C(F)(F)F)c2)c1-c1ccc(OCc2ccc(Cl)cc2)cc1O', 'N'),
  ('CC(=O)OCC1OC(OC2C(COC(C)=O)OC(OCCC[S-])C(OC(C)=O)C2OC(C)=O)C(OC(C)=O)C(OC(C)=O)C1OC(C)=O.[Au+].c1ccc(CN2[CH-]N(Cc3ccccc3)C(c3ccccc3)=C2c2ccccc2)cc1 (configuration not stated)', 'N'),
  ('CCCn1c2cc(OCc3cn(-c4ccc(Cl)cc4)nn3)ccc2c2ccnc(C)c21', 'N'),
  ('COc1ccccc1N1CCN(CCCOc2ccc(C(=O)/C=C3/C(=O)Nc4ccccc43)cc2)CC1', 'N'),
  ('C[C@]12CC[C@@H]3c4ccc(O)cc4CC[C@H]3[C@@H]1C[C@H](O)C2', 'Y'),
  ('COc1cc(/C=C/C(=O)c2cccs2)ccc1OCc1ccc(Cl)nc1', 'N'),
  ('O=C(CN1N=C(c2ccc(F)cc2)CCC1=O)Nc1nccs1', 'Y'),
  ('COc1ccc(Nc2cc(NC(=O)CNc3cc(OC)c(Cl)c(OC)c3Cl)ncn2)cc1', 'Y'),
  ('[2H]c1nc(Nc2ncc3cc(C(=O)N(C)C)n(C4CCCC4)c3n2)c([2H])c([2H])c1N1C([2H])([2H])C([2H])([2H])NC([2H])([2H])C1([2H])[2H]', 'N'),
  ('COc1cc(/C=C/C(=O)/C=C/c2cc3ccc(Cl)cc3[nH]c2=O)ccc1O', 'N'),
  ('Cc1ccn2c3c(c(C(=O)O)c2c1)C(=O)c1ccccc1C3=O', 'Y'),
  ('O=C(NCc1ccccc1)c1ccc2c(c1)NC(=O)[C@@H]1CCCN21', 'Y');
